Experiment: Metabolic stability in mouse liver microsomes
Settings: mouse, liver microsomes, T1/2 (M), predicted half-life in mouse liver microsomes; Figure 1A; min in Figure 2E for the same values
Procedure: The effects of changing R1 as 7-Et, 7-Me, 6-CF3, or 6-Me on activity against RH strain tachyzoites, kinetic solubility, and metabolic stability were compared. Kinetic solubility and metabolic stability in human or murine liver microsomes were measured. The hERG (human Ether-à-go-go-Related) liability was also determined. […] Assessing transport in both directions (apical to basolateral and basolateral to apical) across the cell monolayers enables an efflux ratio to be determined. […]
Catalogue of compounds with associated half-life
State just the number; it will be interpreted in h.

Cc1[nH]c2c(c(=O)c1-c1ccc(Oc3ccc(OC(F)(F)F)cc3)cc1)CCCC2 [JAG21] | 1.68
Cc1[nH]c2c(c(=O)c1-c1ccc(Oc3cccc(Cl)c3)cc1)CCCC2 [JAG062] | 0.207
Cc1[nH]c2ccccc2c(=O)c1-c1ccc(Oc2ccc(OC(F)(F)F)cc2)cc1 [ELQ271, reference compound] | 7.47
Cc1[nH]c2c(c(=O)c1-c1ccc(Oc3ccc(OC(F)(F)F)cc3)cc1)CCC(C)C2 (centres unmarked) [JAG107] | 1.87
Cc1[nH]c2c(c(=O)c1-c1ccc(Oc3ccc(F)c(Cl)c3)cc1)CCCC2 [AS021] | 0.685

Enquiry: Return reported half-life; argument: Cc1[nH]c2c(c(=O)c1-c1ccc(Oc3cc(Cl)cc(Cl)c3)cc1)CCCC2 [AS022]
Return: 0.477

Enquiry: Looking for the measured half-life of Cc1[nH]c2c(c(=O)c1-c1ccc(Oc3ccc(Cl)c(Cl)c3)cc1)CCCC2 [JAG084] , can you help?
Return: 1.05

Enquiry: Data request, read-out half-life, for Cc1[nH]c2c(c(=O)c1-c1ccc(Oc3ccc(OC(F)(F)F)cc3)cc1)CCC(C(F)(F)F)C2 (centres unmarked) [JAG162]
Return: 2.41

====

Assay: Metabolic stability in human liver microsomes
Conditions: human, liver microsomes
Description: The effects of changing R1 as 7-Et, 7-Me, 6-CF3, or 6-Me on activity against RH strain tachyzoites, kinetic solubility, and metabolic stability were compared. Kinetic solubility and metabolic stability in human or murine liver microsomes were measured. The hERG (human Ether-à-go-go-Related) liability was also determined. […] Assessing transport in both directions (apical to basolateral and basolateral to apical) across the cell monolayers enables an efflux ratio to be determined. […]
Entry flag: MET if half-life reaches 4 h; NOT MET if it does not.

Reference set (3 entries):
Cc1[nH]c2c(c(=O)c1-c1ccc(Oc3ccc(C(F)(F)F)cc3)cc1)CCCC2 | MET
Cc1[nH]c2c(c(=O)c1-c1ccc(Oc3cccc(F)c3)cc1)CCCC2 | NOT MET
Cc1[nH]c2c(c(=O)c1-c1ccc(Oc3ccc(F)cc3)cc1)CCCC2 | MET

Enquiry: Answer whether half-life of Cc1[nH]c2c(c(=O)c1-c1ccc(Oc3cccc(Cl)c3)cc1)CCCC2 is greater than or equal to 4 h.
Return: NOT MET

Enquiry: Answer whether half-life of Cc1[nH]c2ccnn2c(=O)c1-c1ccc(Oc2ccc(OC(F)(F)F)cc2)cc1 is greater than or equal to 4 h.
Return: MET

Enquiry: Answer whether half-life of Cc1[nH]c2c(c(=O)c1-c1ccc(Oc3ccc(Cl)cc3)cc1)CCCC2 is greater than or equal to 4 h.
Return: NOT MET

====

System: HepG2 cells
Experiment: Cytotoxicity with HepG2 cells
Assay type: cell-based
Conditions: Homo sapiens, dose response testing, read-out: HEP G2 IC50
ENDPOINT NAME: pIC50
# reply with the number alone; pIC50 is -log10 of concentration in mol/L

Cc1[nH]c2c(c(=O)c1-c1ccc(Oc3ccc(OC(F)(F)F)cc3)cc1)CCCC2 | 4.75

Enquiry: Record lookup: for HepG2 cells, what pIC50 belongs to Cc1[nH]c2c(c(=O)c1-c1ccc(Oc3ccc(Cl)cc3)cc1)CCCC2 ?
Return: 5.15

====

Test system: P-glycoprotein (P-gp, MDR1/ABCB1)
Experiment: in vitro
Conditions: dog, MDCK-MDR1
ENDPOINT NAME: Papp

Enquiry: Request the reported Papp associated with Cc1[nH]c2c(c(=O)c1-c1ccc(Oc3ccc(Cl)cc3)cc1)CCCC2
Return: > 10 ×10⁻⁶ cm/s

====

Test system: P. falciparum strains D6, TM91-C235, W2, C2B
Experiment: Malaria SYBR Green I-Based Fluorescence (MSF) assay
Type: cell-based
Conditions: Plasmodium falciparum; D6, drug sensitive strain; read-out: SYBR Green D6 IC50
ENDPOINT NAME: pIC50
A value of pIC50 is the negative decimal logarithm of a concentration given in moles per litre.

As a guide, the following entries are already answered.
Cc1[nH]c2c(c(=O)c1-c1ccc(Oc3ccc(OC(F)(F)F)cc3)cc1)CCCC2 | 7.84
Cc1[nH]c2c(c(=O)c1-c1ccc(Oc3ccc(Cl)cc3)cc1)CCCC2 | 7.33
Cc1[nH]c2c(c(=O)c1-c1ccc(Oc3cccc(C(=O)O)c3)cc1)CCCC2 | 5.43

Now look at this one.
Enquiry: API: value(readout= pIC50, system= P. falciparum strains D6, TM91-C235, W2, C2B, query= Cc1[nH]c2c(c(=O)c1-c1ccc(Oc3ccc(C(=O)O)cc3)cc1)CCCC2 )
Return: 5.17

====

Tested on: HepG2 cells
Test: Cytotoxicity with HepG2 cells
Type: cell-based
Conditions: Homo sapiens, supplement summary, read-out: IC50, human HepG2 cells
ENDPOINT NAME: IC50

Enquiry: Please look up its IC50: Cc1[nH]c2c(c(=O)c1-c1ccc(Oc3ccc(OC(F)(F)F)cc3)cc1)CCCC2
Return: > 17 µM

Reference for the values: paper PMC7311950
